Sourced from paper PMC8092220

# target-or-system: cobamide (5′ phosphate) synthase (CobS) (Salmonella enterica, UniProt Q05602)
# Construct: CobS^WT reconstituted in proteoliposomes
# Sequence (Q05602 whole entry): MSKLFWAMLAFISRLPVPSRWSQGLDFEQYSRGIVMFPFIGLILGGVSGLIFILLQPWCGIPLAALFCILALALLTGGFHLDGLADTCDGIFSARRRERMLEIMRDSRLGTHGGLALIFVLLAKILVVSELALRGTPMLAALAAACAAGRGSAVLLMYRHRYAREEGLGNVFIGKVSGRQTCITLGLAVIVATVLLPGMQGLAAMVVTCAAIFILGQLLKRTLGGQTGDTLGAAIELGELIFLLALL
# method-summary: DRaCALA with […]α-RP, CobS proteoliposomes (Kd […] for DHPC-solubilized CobS); also protection in limited trypsin proteolysis
# Assay type: binding
pKd: −log10 of the molar value.

{"compound": "Cc1cc2ncn([C@H]3O[C@H](COP(=O)(O)O)[C@@H](O)[C@H]3O)c2cc1C [α-RP]", "target-or-system": "cobamide (5′ phosphate) synthase (CobS) (Salmonella enterica, UniProt Q05602)", "pKd": 6.24}
